- TARGET_UNDER_TEST: von Hippel-Lindau disease tumor suppressor/Estrogen receptor/Cullin-2 (Homo sapiens, UniProt P03372+P40337+Q13617)
- Sequence (P03372 whole entry, looked up): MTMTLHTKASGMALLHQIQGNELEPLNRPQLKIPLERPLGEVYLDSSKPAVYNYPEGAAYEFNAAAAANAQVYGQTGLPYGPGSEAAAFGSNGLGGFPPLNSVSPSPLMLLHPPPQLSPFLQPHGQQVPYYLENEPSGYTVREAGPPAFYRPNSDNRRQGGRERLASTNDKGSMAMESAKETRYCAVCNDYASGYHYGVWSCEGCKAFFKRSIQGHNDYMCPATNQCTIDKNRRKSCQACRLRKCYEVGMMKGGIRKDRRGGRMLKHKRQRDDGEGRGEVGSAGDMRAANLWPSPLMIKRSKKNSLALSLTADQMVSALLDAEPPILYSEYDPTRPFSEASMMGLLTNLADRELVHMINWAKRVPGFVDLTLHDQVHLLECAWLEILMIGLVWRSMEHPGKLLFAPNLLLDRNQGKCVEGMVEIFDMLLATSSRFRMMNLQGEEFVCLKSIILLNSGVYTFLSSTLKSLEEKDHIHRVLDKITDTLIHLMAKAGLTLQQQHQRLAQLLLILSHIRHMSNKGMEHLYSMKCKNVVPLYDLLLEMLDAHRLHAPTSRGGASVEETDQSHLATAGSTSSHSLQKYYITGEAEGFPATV
- Sequence (P40337 whole entry, looked up): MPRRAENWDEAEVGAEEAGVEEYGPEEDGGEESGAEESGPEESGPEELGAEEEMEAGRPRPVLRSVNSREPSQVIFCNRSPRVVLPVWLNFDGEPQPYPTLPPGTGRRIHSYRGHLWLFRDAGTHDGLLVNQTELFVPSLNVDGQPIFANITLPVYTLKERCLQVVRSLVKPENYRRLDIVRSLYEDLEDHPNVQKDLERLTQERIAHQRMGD
- Sequence (Q13617 whole entry, looked up): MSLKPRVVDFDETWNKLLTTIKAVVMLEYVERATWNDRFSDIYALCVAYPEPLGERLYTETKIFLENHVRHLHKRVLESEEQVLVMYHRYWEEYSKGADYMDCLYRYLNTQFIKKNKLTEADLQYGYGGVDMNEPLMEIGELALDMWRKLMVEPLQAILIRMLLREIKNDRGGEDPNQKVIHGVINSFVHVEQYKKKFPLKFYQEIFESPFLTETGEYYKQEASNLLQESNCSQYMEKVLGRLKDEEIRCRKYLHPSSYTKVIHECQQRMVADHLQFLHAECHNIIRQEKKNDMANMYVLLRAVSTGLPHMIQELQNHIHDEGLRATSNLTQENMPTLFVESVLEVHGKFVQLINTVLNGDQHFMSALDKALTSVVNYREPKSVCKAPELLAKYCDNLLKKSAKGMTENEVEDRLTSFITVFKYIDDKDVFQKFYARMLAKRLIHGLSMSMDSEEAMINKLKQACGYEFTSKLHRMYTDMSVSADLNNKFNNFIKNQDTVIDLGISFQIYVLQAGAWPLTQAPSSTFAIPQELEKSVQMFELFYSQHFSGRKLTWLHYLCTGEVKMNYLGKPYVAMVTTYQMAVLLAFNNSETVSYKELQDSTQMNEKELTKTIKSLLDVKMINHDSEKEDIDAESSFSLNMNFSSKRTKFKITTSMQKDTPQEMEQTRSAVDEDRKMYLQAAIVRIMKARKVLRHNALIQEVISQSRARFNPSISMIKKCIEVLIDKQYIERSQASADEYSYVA
- TEST: Protac activity against VHL/cullin2/ERalpha in human MCF7 cells assessed as ERalpha degradation by measuring ER protein/GADPH ratio at 1 nM after 4 hrs by Western blot analysis relative to control
- Format: cell-based
Criterion: Ratio meeting or surpassing 90. Met: yes (1). Not met: no (0).

**Q:** Could you please find out whether CCN(CCOc1ccc(C(=O)c2c(-c3ccc(O)cc3)sc3cc(O)ccc23)cc1)CCC1CCN(CCCC(=O)N[C@H](C(=O)N2C[C@H](O)C[C@H]2C(=O)N[C@@H](C)c2ccc(-c3scnc3C)cc2)C(C)(C)C)CC1 has Ratio that meets 90 or exceeds it?
**A:** yes (1)

**Q:** Would you say CCN(CCOCCOCC(=O)N[C@H](C(=O)N1C[C@H](O)C[C@H]1C(=O)N[C@@H](C)c1ccc(-c2scnc2C)cc1)C(C)(C)C)CCOc1ccc(C(=O)c2c(-c3ccc(O)cc3)sc3cc(O)ccc23)cc1 shows Ratio at minimum 90?
**A:** yes (1)

**Q:** Has CCN(CCCCCCCC(=O)N[C@H](C(=O)N1C[C@H](O)C[C@H]1C(=O)N[C@@H](C)c1ccc(C(C)C)cc1)C(C)(C)C)CCOc1ccc(C(=O)c2c(-c3ccc(O)cc3)sc3cc(O)ccc23)cc1 a recorded Ratio greater than or equal to 90?
**A:** yes (1)

**Q:** Tell me whether Ratio is at least 90 here: Cc1ncsc1-c1ccc([C@H](C)NC(=O)[C@@H]2C[C@@H](O)CN2C(=O)[C@@H](NC(=O)CCCCCCCN(CCOc2ccc(C(=O)c3c(-c4ccc(O)cc4)sc4cc(O)ccc34)cc2)C2CCCCC2)C(C)(C)C)cc1
**A:** no (0)

**Q:** Determine whether measured Ratio meets or exceeds 90 for CCN(CCCCCCCCCC(=O)N[C@H](C(=O)N1C[C@H](O)C[C@H]1C(=O)N[C@@H](C)c1ccc(-c2scnc2C)cc1)C(C)(C)C)CCOc1ccc(C(=O)c2c(-c3ccc(O)cc3)sc3cc(O)ccc23)cc1
**A:** no (0)

**Q:** hey, is Ratio for this one >= 90? Cc1ncsc1-c1ccc([C@H](C)NC(=O)[C@@H]2C[C@@H](O)CN2C(=O)[C@@H](NC(=O)CCCCCCCN(CCOc2ccc(C(=O)c3c(-c4ccc(O)cc4)sc4cc(O)ccc34)cc2)CC2CCC2)C(C)(C)C)cc1
**A:** no (0)

**Q:** Item CCN(CCCCCCCC(=O)N[C@H](C(=O)N1C[C@H](O)C[C@H]1C(=O)N[C@@H](C)c1ccc(Cl)cc1)C(C)(C)C)CCOc1ccc(C(=O)c2c(-c3ccc(O)cc3)sc3cc(O)ccc23)cc1 with Ratio of 90 or above?
**A:** yes (1)

**Q:** Check this compound for Ratio at or above 90: Cc1ncsc1-c1ccc([C@H](C)NC(=O)[C@@H]2C[C@@H](O)CN2C(=O)[C@@H](NC(=O)CCCCCCCN(CCOc2ccc(C(=O)c3c(-c4ccc(O)cc4)sc4cc(O)ccc34)cc2)C2CCCC2)C(C)(C)C)cc1
**A:** no (0)

**Q:** Dear colleague, could you confirm whether CCN(CCOCCOCCOCCC(=O)N[C@H](C(=O)N1C[C@H](O)C[C@H]1C(=O)N[C@@H](C)c1ccc(-c2scnc2C)cc1)C(C)(C)C)CCOc1ccc(C(=O)c2c(-c3ccc(O)cc3)sc3cc(O)ccc23)cc1 has Ratio at or above 90?
**A:** yes (1)
